Reported melting point values are given for each entry in this list.
PROPERTY MEASURED: melting point

> print(dat)
                                    compound    measurement
 1  Cn1cncc1C(=O)NCc1cccc2c1C(=O)N(C1CCC(=O)NC1=O)C2=O (centres undefined)       > 260 °C
 2                COc1ccnc(-n2cnc3ccccc32)n1  114 to 116 °C
 3                     CC(C)c1nc(O)cc(=O)n1C         159 °C
 4  CC(C#Cc1ccc(Oc2ccc(Cc3ccc(F)cc3)cc2)o1)N(O)C(N)=O (centres undefined)  145 to 147 °C
 5  CC(C)(C)CC(SC1CCCCC1)c1c(O)cc(-c2ccccc2)oc1=O (centres undefined)       > 225 °C
 6  COC(=O)c1cnc2c3cc(NC(=O)CCC4CCCC4)ccc3ncn2c1=O  244 to 247 °C
 7  O=C1Nc2ccc(F)cc2OC1CCO (centres undefined)  136 to 138 °C
 8  O=c1cc(-c2ccccc2)oc2cc(OCCCCCN3CCC(O)CC3)ccc12    94 to 95 °C
 9      O=C(O)c1cc2c(-c3ccncc3)nccc2[nH]c1=O       > 300 °C
10       NC(=O)NN=Cc1ccc(Oc2ccc(F)cc2)c(F)c1  233 to 234 °C
11  OCCn1cc(-c2ccc3nnn(Cc4ccc(F)cc4)c3n2)cn1  204 to 206 °C
12  O=c1c(-c2ccccc2)coc2cc(OCC3CO3)ccc12 (centres undefined)  151 to 152 °C
13             Cc1nc2ccsc2c(=O)n1-c1ccccc1Cl  118 to 121 °C
14           CN1CCN(S(=O)(=O)c2ccc(Br)s2)CC1         122 °C

----------
PROPERTY MEASURED: melting point

> print(dat)
                            molecule.smiles  measurement
1  COc1ccc(COC(=O)c2cc([N+](=O)[O-])c3ccccc3c2OS(=O)(=O)C(F)(F)F)cc1  74 to 75 °C
2                     Cc1csc(NC(=O)N(C)C)n1  97 to 98 °C
3                CC(C)n1nc(OCc2ccccc2)cc1CO  81 to 82 °C

----------
PROPERTY MEASURED: melting point (°C)

> print(dat)
                                   compound  property.measured  measurement
1  CC(=O)NCCNc1nc(-c2ccccc2)nc2[nH]c(C(=O)N3CCOCC3)cc12      melting point          250
2  O=C1c2ccccc2C(O)N1c1cccc(C(F)(F)F)c1 (stereo not given)      melting point          202

----------
Reported melting point values are given for each entry in this list.
PROPERTY MEASURED: melting point

> print(dat)
                                   molecule    measurement
1  FC(F)(F)c1cccc2c1c(N1CCOCC1)nc1c(-c3nc(C4CC4)no3)ncn12  197 to 199 °C
2  CN(CC(O)c1ccc(Br)cc1)C(=O)OC(C)(C)C (configuration not stated)    80 to 82 °C
3     CCOC(=O)c1sc(=O)[nH]c1C(F)(F)C(F)(F)F    95 to 97 °C
4               Oc1ccc2c(-c3ccccn3)noc2c1Cl  209 to 211 °C
5    CC(C)n1nc(-c2ccc(N)nc2-c2ccccc2)ccc1=O  167 to 171 °C
6      NC(=O)N(O)CC(=O)Nc1ccc(Oc2ccccc2)cc1         190 °C
7  NC(CO)COc1ccc(Oc2ccccc2)cc1 (configuration not stated)        61.9 °C

----------
Reported melting point values are given for each entry in this list.
PROPERTY MEASURED: melting point

> print(dat)
                                    compound    measurement
 1  CCCCC1(N(C)C)CCC(c2[nH]c3ccc(C#N)cc3c2C)CC1 (stereo not drawn)  162 to 166 °C
 2             CC(C)(C)c1ccc(N2CCOCC2)c(N)c1  165 to 166 °C
 3   O=C(O)C1SCSCC12OCCO2 (stereo not drawn)  195 to 197 °C
 4                     COc1cc(Cl)ccc1CC(=O)O         100 °C
 5  CNc1c(F)cc2c(=O)c(C(=O)O)cn(-c3nc(NCCO)c(F)cc3F)c2c1Cl  201 to 205 °C
 6  O=[N+]([O-])c1cc(O)c(O)c([N+](=O)[O-])c1  168 to 170 °C
 7           Cn1ccnc1Sc1ccc([N+](=O)[O-])cc1  120 to 121 °C
 8  CCOC(=O)C1C(=O)N(Cc2ccc(Br)cc2F)C(=O)c2cccn21 (stereo not drawn)  114 to 115 °C
 9  CCOC(Nc1ccccc1)(OCC)C1(Cl)C=C(C)N=C(C(=O)c2ccc(Cl)cc2)C1 (stereo not drawn)  134 to 135 °C
10   Cc1c(C(=O)N2CCC[C@H](C)C2)[nH]c2ccccc12  198 to 200 °C
11  COC(=O)c1cccc(COC(OC(C)=O)C(=O)c2ccccc2)c1 (stereo not drawn)    86 to 87 °C
12  CCCC(=O)CC(=O)c1ccc(C2CCC(CC)CC2)cc1 (stereo not drawn)          99 °C
13  Cc1cc(C(=O)N2Cc3cccn3Cc3ccccc32)ccc1C1=CCC2CC1C2(C)C (stereo not drawn)  139 to 140 °C

----------
Reported melting point values are given for each entry in this list.
PROPERTY MEASURED: melting point

> print(dat)
                                   compound  property.measured    measurement
1  CC(C(N)=O)c1ccc2c(=O)c3ccccc3ccc2c1 (configuration not stated)      melting point  158 to 159 °C
2  Cc1cccc2c1C(=O)N1CC[C@H]1c1c(C(=O)OC(C)(C)C)ncn1-2      melting point  191 to 192 °C
3  CCc1cn(S(=O)(=O)c2ccc(C)cc2)c2cc(C(=O)Nc3c(Cl)cncc3Cl)ccc12      melting point  147 to 149 °C
4          OCCCN1CCN(c2ccccc2OCC(F)(F)F)CC1      melting point    94 to 96 °C
5  CC(=O)N1C(=O)N(c2cc(Cl)cc(Cl)c2)C(=O)[C@]12CNC[C@H]2c1ccc(C#N)cc1 (relative stereo)      melting point         125 °C
6  CCCCCCCCCCCCCCN(C(=O)CCCCCCCCCCC)C1(N)OC(CO)C(O)C(O)C1C(=O)C(N)C(=O)CNC (configuration not stated)      melting point         116 °C
7                CC(C)Cc1nc(-c2ccccc2)cnc1O      melting point  205 to 207 °C

----------
Reported melting point values are given for each entry in this list.
PROPERTY MEASURED: melting point

> print(dat)
                                   molecule    measurement
1                  BrC1=Cc2ccccc2Nc2ccccc21    65 to 69 °C
2  CC(F)(F)S(=O)(=O)c1c(C(N)=S)nn(-c2c(Cl)cc(C(F)(F)F)cc2Cl)c1N  228 to 229 °C
3                   COc1cc(CCNC=O)cc2c1OCO2  108 to 110 °C
4  COc1ccc2c(c1)c(Cc1cc(=O)n(C3CCCCCC3)[nH]1)c(C)n2C(=O)c1ccc(Cl)cc1  145 to 148 °C
5                  NC(=O)N=C1SCCN1Cc1ccccc1  143 to 145 °C
6               O=C(NCCC1CCCCC1)NCCC1CCCCC1  150 to 152 °C
7  O=C(O)C=Cc1ccc(OCC2CN(c3ccccc3)C(=O)O2)cc1 (centres undefined)  239 to 240 °C
8        CSc1ccc(Nc2cc(-c3nnc(C)o3)ccn2)cc1  203 to 204 °C
9  OCCc1c(C2=CCC(c3ccccc3)(N3CCCC3)CC2)[nH]c2ccc(F)cc12 (centres undefined)  188 to 191 °C

----------
PROPERTY MEASURED: melting point

> print(dat)
                                   molecule    measurement
1  CC(c1ccccc1)N1Cc2cncn2C(c2ccc(Br)cc2)C1=O (single isomer, unassigned; (+))  147 to 148 °C
2  CC1CCN(c2ccc([N+](=O)[O-])cc2C(=O)c2ccccc2)CC1          81 °C
3    CC(=O)N1CCc2c(Br)ccc([N+](=O)[O-])c2C1  159 to 161 °C
4  O=C1CCC(=O)C(Cc2ccccc2)N1 (centres undefined)  140 to 141 °C
5  CC1CCC(=NNc2ccccc2)c2nccc(=O)n21 (centres undefined)  163 to 164 °C
6  CCOC(=O)C1=C(C)NC(N=CCN(C)C)=C(C(=O)OCC)C1c1cccc([N+](=O)[O-])c1 (centres undefined)         172 °C
7  O=C1C=C(O)CC(CCC2CCCC2)(C2CCCC2)O1 (centres undefined)  130 to 132 °C
8  COc1ccc(Cn2c(C(=O)O)c(-c3ccc4c(c3)OCO4)c3ccccc32)c(OCC(=O)O)c1  195 to 196 °C
9   CN1CCn2c1nc(C(=O)NCc1ccc(F)cc1)c(O)c2=O         212 °C
